- System: A*0202 (Homo sapiens, UniProt P04439, D140Y/D185E/D98H/E176V/E277Q/G131W/G231S/I119L/I121R/I166T/I218V/L180W/L300P/L318F/N151K/N90K/P208A/P217A/Q67R/Q86G/Q94H/R138H/R169H/T345S)
- Assay remarks: biochemical
- Type: binding
pIC50: −log10 of the molar value. No end group written: not given here.
Tick label 1 if pIC50 is 8 or greater. Tick label 0 if pIC50 is less than 8.

Previously resolved entries follow.
GLSAGATVGV [Peptide 9013.0250] = label 1
LQLSNDNRTLV [Peptide 9013.0307] = label 0
SLNRSDPVTL [Peptide 9013.0233] = label 0

Has RMLQQLLFV [Peptide 1525.16] a recorded pIC50 greater than or equal to 8?
label 0

Continue with RTLQLLLFV [Peptide 1525.25]
label 0

Continue with ELLLLVHNL [Peptide 9013.0022]
label 0

Continue with QLHTQVLFIA [Peptide 9013.0242]
label 0

Continue with VLAEAMSHV [Peptide 1516.08]
label 1

Continue with FQKYKTLFV [Peptide 1578.54]
label 0

----------
- System: DRB5*0101 (Homo sapiens, UniProt P01903+Q30154)
- Assay remarks: biochemical
- Condition description: DRB5*0101
No end group written: not given here.
Assay readout: pIC50
Bear in mind: pIC50 is minus log10 of a mol/L concentration; give just that figure.

AKSTWYGKPTGAGPKDNGGA [Peptide 620.03] = 5.00

Read the next record carefully.
// query pIC50 value for entry TAEYGDKWLDAKSTWYGKPT [Peptide 620.02]
5.00

----------
- System: A*6801 (Homo sapiens, UniProt P04439, A269V/D185E/E176V/E277Q/E87N/F33Y/G231S/I121M/I166T/I218V/L180W/L300P/L318F/N151K/P208A/P217A/Q86R/R169H/T345S)
- Assay remarks: biochemical
- Assay type: binding
No end group written: not given here.
In this scheme, each record receives a class according to its IC50; the ranges are Low = under 30 nM, Medium = from 30 nM up to 50 nM, High = 50 nM and over

CFFTRTWSR [Peptide 88.0382] = High
RLKAICIEK [Peptide 1587.01] = High
NTKANILYK [Peptide 88.0358] = High
FLSQVKIPK [Peptide 1589.05] = Medium
TVSAELPR [Peptide 1556.22] = High

Band for the recorded IC50 of NLQGKLYYK [Peptide 88.0375] ?
High

Continue with ITIEKLLEK [Peptide 1587.31]
Low

Continue with STAAALYWYK [Peptide 1587.06]
Low

Continue with WTIAYIEYRK [Peptide 9017.0244]
Low

Continue with LTALIKPKK [Peptide 9017.0100]
Low

Continue with TVSATQLVK [Peptide 1589.08]
Medium

Continue with HLFGYSYYK [Peptide 76.0191]
Low

Continue with LFYSKVRKYK [Peptide 88.0098]
High

Continue with VTVYYGVPVRR [Peptide 1525.07]
Medium

----------
- System: DRB1*1201 (Homo sapiens, UniProt P01903+P01911, A100R/A169T/D57E/D86V/F55L/H45Y/K41T/L162R/M171V/P40S/Q125H/Q178H/Q39Y/Q99D/R42G/S66L/T262R/V114A/V67L/W38E/Y59H/Y61H/Y89S)
- Assay remarks: biochemical
- Assay type: binding
No end group written: not given here.
Assay readout: pIC50
Bear in mind: pIC50 is minus log10 of a mol/L concentration; give just that figure.

Example entries and their recorded answers appear below.
MAIFGVNPTVAEGFK [Peptide 89.0081] = 5.92
RVCLLFYSKVRKYRY [Peptide 1543.54] = 6.22
ITFLGALKSFLKGTP [Peptide 89.0034] = 7.36
RLTVAKGLSTLLHVP [Peptide 89.0028] = 6.56
QSTQVDIRILQELLM [Peptide 1543.11] = 5.63

// query pIC50 value for entry ADKIYSISMKHPQEM [Peptide 68.0125]
5.03

Continue with MLAVFKDTYGLSFTD [Peptide 90.0050]
5.13

Continue with IHFLQGAIISFVNSN [Peptide 89.0089]
7.15

----------
- System: HLA-A1 (A*0101) (Homo sapiens, UniProt P04439, A114D/A174V/A182V/D101N/D185E/E176A/E190D/L180R/Q94H/R68K/S129P/T187R/V100A/V91M/W191G)
- Assay remarks: biochemical
- Format: binding
No end group written: not given here.
In this scheme, each record receives a class according to its IC50; the ranges are low bracket (below 30 nM), middle bracket (30 nM to below 400 nM), high bracket (400 nM or more)

Previously resolved entries follow.
DMDDLVDAEEY [Peptide 9012.0184] = high bracket
EYRHYQYSLY [Peptide 78.0183] = high bracket
GLADQLIHLY [Peptide 9015.0185] = high bracket
GNEKTYFKY [Peptide 86.0160] = high bracket
IVEGQVDYY [Peptide 1580.29] = middle bracket

Band for the recorded IC50 of KQNPDIVIY [Peptide 1595.10] ?
high bracket

Continue with FGEMVQWAY [Peptide 1580.13]
middle bracket

Continue with WFDITNWLWY [Peptide 9015.0161]
high bracket

Continue with LSSALEIPY [Peptide 1549.01]
low bracket

Continue with FTTCLGLSY [Peptide 9012.0136]
low bracket

Continue with LADQLIHMHY [Peptide 9015.0186]
low bracket

Continue with SSDPSQKTY [Peptide 9012.0139]
middle bracket

Continue with ATDLGLSY [Peptide 9012.0112]
low bracket

Continue with VWTIVYIEY [Peptide 9015.0089]
high bracket

Continue with YTMAGVGSPY [Peptide 9012.0153]
low bracket

Continue with QTDYYGLYY [Peptide 1593.06]
low bracket

Continue with RFHNIGGRW [Peptide 78.0369]
high bracket

Continue with KSAIVTLTY [Peptide 1580.20]
low bracket

Continue with VTQGNLELTY [Peptide 9012.0147]
middle bracket

Continue with KSLVKHHMY [Peptide 9015.0034]
high bracket

Continue with ETPGIRYQY [Peptide 9015.0017]
high bracket

Continue with RTDGNRQIIGY [Peptide 9012.0158]
middle bracket

Continue with WKSLVKHHMY [Peptide 9015.0177]
high bracket

Continue with RFALNPGLL [Peptide 1605.01]
high bracket

----------
- System: DR1 (DRB1*0101) (Homo sapiens, UniProt P01903+P01911, A100R/D57E/F55L/F60I/F76Y/I96L/L162R/M171V/P40L/Q125E/R42F/V115G/Y59C)
- Assay remarks: biochemical
- Type: binding
pIC50: −log10 of the molar value. No end group written: not given here.
Tick Criterion met if pIC50 is 6 or greater. Tick Criterion not met if pIC50 is less than 6.

KERHVNANKRFHNIM [Peptide 1543.59] = Criterion met
AKLMSNLLSIPETCM [Peptide 89.0066] = Criterion met
ETEVVEPLTPSGAMP [Peptide 9014.0146] = Criterion met
DICNTMHYTNWTHIY [Peptide 1601.04] = Criterion not met
ETCMLIQPPKLRSSV [Peptide 89.0029] = Criterion met

Has IHFLQGAIISFVNSN [Peptide 89.0089] a recorded pIC50 greater than or equal to 6?
Criterion met

Continue with TVTFVTEQQQQMFLG [Peptide 90.0210]
Criterion not met

Continue with RLNLDNDEDKENNGD [Peptide 90.0144]
Criterion met

Continue with VMFLRYQGVEFMSFL [Peptide 89.0014]
Criterion met

Continue with SADDLRAFQQLFLNT [Peptide 1543.07]
Criterion met

----------
- System: DR7 (DRB1*0701) (Homo sapiens, UniProt P01903+P01911, A100R/A102G/A103Q/D57E/D86V/E43K/F76Y/K127E/L162R/M171V/P40G/Q125H/Q99D/R33Q/R42Y/R54Q/S133A/S66F/T210M/V115G/Y107V/Y59L/Y89S)
- Assay remarks: biochemical
- Type: binding
Some compounds, each annotated with its measured pIC50.
Bear in mind: pIC50 is minus log10 of a mol/L concentration; give just that figure.

CC[C@H](C)[C@H](NC(=O)[C@H](Cc1c[nH]c2ccccc12)NC(=O)[C@H](CCC(=O)O)NC(=O)[C@@H]1CCCN1)C(=O)N[C@@H](CCC(N)=O)C(=O)N[C@@H](CCCNC(=N)N)C(=O)N[C@@H](CCC(N)=O)C(=O)N[C@H](C(=O)N[C@H](C(=O)N[C@@H](CC(C)C)C(=O)N[C@@H](CCC(N)=O)C(=O)N[C@@H](Cc1c[nH]cn1)C(=O)N[C@@H](CO)C(=O)N[C@@H](Cc1ccccc1)C(=O)N[C@@H](CC(N)=O)C(=O)O)C(C)C)[C@@H](C)O [Peptide 89.0011] = 5.21

Read the next record carefully.
// query pIC50 value for entry CC(C)C[C@H](NC(=O)[C@@H](NC(=O)[C@H](Cc1c[nH]c2ccccc12)NC(=O)[C@H](CC(=O)O)NC(=O)[C@H](CCC(=O)O)NC(=O)[C@@H](NC(=O)[C@H](CCCCN)NC(=O)[C@H](Cc1ccc(O)cc1)NC(=O)[C@H](CCCNC(=N)N)NC(=O)[C@H](CO)NC(=O)[C@@H](N)CCC(N)=O)[C@@H](C)O)[C@@H](C)O)C(=O)N[C@@H](CCC(N)=O)C(=O)N[C@@H](CC(=O)O)C(=O)N[C@H](C(=O)N[C@@H](CS)C(=O)O)[C@@H](C)O [Peptide 90.0179]
5.19

Data origin, for the record: patent US9340577B2
